Measured melting point by item

Some solved entries appear below for comparison.
compound="COC(=O)c1nc(-c2cnn(C)c2)cc(N)c1Cl [Compound 124]" metric_name="melting point" obs_value="174 to 176 °C"
compound="Nc1cc(-c2ccc3c(c2)CCC3)nc(C(=O)O)c1Cl [Compound 188]" metric_name="melting point" obs_value="204 to 205 °C"
compound="Nc1cc(-c2ccc3c(c2Cl)OCO3)nc(C(=O)O)c1Cl [Compound 187]" metric_name="melting point" obs_value="226 to 227 °C"

Report melting point for CC(C)c1ccc(-c2cc(N)c(Cl)c(C(=O)O)n2)cc1 [Compound 147] please. 142 to 143 °C

Give its melting point value. Item: COC(=O)c1nc(-c2ccc3c(c2)OCO3)c(F)c(N)c1Cl [Compound 84] 160 °C

Any idea what its melting point is? The compound is Cn1nccc1-c1cc(N)c(Cl)c(C(=O)O)n1 [Compound 223] 230 to 232 °C

Entry COC(=O)c1nc(-c2ccc(Cl)cc2OC)cc(N)c1Cl [Compound 68] : reported melting point = ? 152 to 154 °C

Reported melting point, compound COC(=O)c1nc(-c2ccc(C(C)=O)cc2)cc(N)c1Cl [Compound 31] : ____ 146 to 148 °C
